# experimental-system: human TYK2 (JH2domain-pseudokinase) (Homo sapiens (Human), UniProt P29597)
# Sequence (P29597 556-888): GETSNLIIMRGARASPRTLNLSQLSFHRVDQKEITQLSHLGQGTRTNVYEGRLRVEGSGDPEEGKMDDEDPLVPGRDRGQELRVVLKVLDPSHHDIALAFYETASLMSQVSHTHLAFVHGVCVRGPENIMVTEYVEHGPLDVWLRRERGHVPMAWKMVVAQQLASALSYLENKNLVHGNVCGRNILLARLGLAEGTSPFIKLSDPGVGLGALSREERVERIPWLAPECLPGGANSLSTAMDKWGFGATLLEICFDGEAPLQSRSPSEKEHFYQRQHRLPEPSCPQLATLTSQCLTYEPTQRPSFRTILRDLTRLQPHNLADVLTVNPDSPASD
# protocol-description: TYK2 JH2 Domain Binding Assay (KINOMEscan, DiscoveRx)
# reported-conditions: 11-point dilution, duplicate
pKd: −log10 of the molar value.
reported-endpoint: pKd

Recorded results for 5 compounds are shown here.
Cc1nc2c(Nc3ccc([C@@H]4COCCO4)cc3S(C)(=O)=O)cc(NC(=O)C3CC3)nc2[nH]1 [I-611] | 9.30 to 10.00
Cc1nc2c(Nc3ccc(F)cc3S(C)(=O)=O)cc(Nc3cc4c(nn3)CCC4)nc2[nH]1 [I-639] | > 10.00
Cc1nc(-c2ccc(Nc3cc(Nc4cccc(C#N)n4)nc4[nH]c(C(F)F)nc34)c(S(C)(=O)=O)c2)sc1C [I-507] | 8.00 to 9.00
Cc1ccc(Nc2cc(Nc3ccc(Cl)cc3S(C)(=O)=O)c3nc(C)[nH]c3n2)nn1 [I-189] | 9.30 to 10.00
Cc1nc2c(Nc3ccccc3S(C)(=O)=O)cc(Nc3ccc(C(C)C)c(C#N)n3)nc2[nH]1 [I-490] | 9.30 to 10.00

// field: pKd; key: Cc1cc(Nc2cc(Nc3ccc(-c4nc(C)sc4C)cc3S(C)(=O)=O)c3nc(C(F)F)[nH]c3n2)nc(C)n1 [I-578] ; value = 9.30 to 10.00

// field: pKd; key: Cc1nc2c(Nc3ccc(C4=NC(C)(C)CS4)cc3S(C)(=O)=O)cc(NC(=O)C3CC3)nc2[nH]1 [I-568] ; value = 9.00 to 9.30

// field: pKd; key: CN(c1cc(C2CCCCO2)ccc1Nc1cc(NC(=O)C2CC2)nc2[nH]c(C(F)F)nc12)S(C)(=O)=O (stereo not shown) [I-369] ; value = 9.30 to 10.00

// field: pKd; key: Cc1nc2c(Nc3ccc(C4CCOCC4)cc3P(C)(C)=O)cc(NC(=O)C3CC3)nc2[nH]1 [I-431] ; value = 9.00 to 9.30

// field: pKd; key: CN(c1cc(C2CCOCC2)ccc1Nc1cc(NC(=O)C2CC2)nc2[nH]c(C(F)F)nc12)S(C)(=O)=O [I-182] ; value = 9.30 to 10.00

// field: pKd; key: COc1cc(-c2cncn2C)ccc1Nc1cc(Nc2cnc(C)c(C)n2)nc2[nH]c(C)nc12 [I-152] ; value = 8.00 to 9.00

// field: pKd; key: COc1c(Nc2cc(Nc3cccc(C#N)n3)nc3[nH]c(C(F)F)nc23)cccc1-c1cnn(C)n1 [I-574] ; value = 9.30 to 10.00

// field: pKd; key: CN(c1cc(C(F)F)ccc1Nc1cc(Nc2cccc(C#N)n2)nc2[nH]c(C(F)F)nc12)S(C)(=O)=O [I-178] ; value = 9.30 to 10.00

// field: pKd; key: [2H]C([2H])([2H])S(=O)(=O)N(C)c1ccccc1Nc1cc(Nc2cc(C)nc(C)n2)nc2[nH]c(C(F)F)nc12 [I-448] ; value = 9.30 to 10.00

// field: pKd; key: COc1c(Nc2cc(NC(=O)[C@H]3C[C@H]3F)nc3[nH]c(C(F)F)nc23)cccc1-c1ncn(C)n1 [I-440] ; value = 9.30 to 10.00

// field: pKd; key: COc1c(C#N)cccc1Nc1cc(NC(=O)C2CC2)nc2[nH]c(C)nc12 [I-105] ; value = < 8.00

// field: pKd; key: Cc1nc2c(Nc3ccc(-c4cncn4C)cc3N(C)S(C)(=O)=O)cc(NC(=O)[C@@H]3CC3(F)F)nc2[nH]1 [I-274] ; value = 9.30 to 10.00

// field: pKd; key: CS(=O)(=O)c1cc(C2CCC2)ccc1Nc1cc(NC(=O)C2CC2(F)F)nc2[nH]c(C(F)F)nc12 (stereo not shown) [I-358] ; value = < 8.00

// field: pKd; key: Cc1ncc(Nc2cc(Nc3ccc([C@H]4CCCCO4)cc3S(C)(=O)=O)c3nc(C(F)F)[nH]c3n2)nc1C [I-486] ; value = 9.30 to 10.00

// field: pKd; key: CS(=O)(=O)N(c1ccccc1Nc1cc(Nc2cccc(C#N)n2)nc2[nH]c(C(F)F)nc12)C(F)F [I-229] ; value = 8.00 to 9.00

// field: pKd; key: COc1c(Nc2cc(Nc3cccc(C(F)(F)F)n3)nc3[nH]c(C)nc23)cccc1-c1cnn(C)n1 [I-606] ; value = 8.00 to 9.00

// field: pKd; key: [2H]C([2H])([2H])N(c1ccccc1Nc1cc(Nc2cc(C)nc(C)n2)nc2[nH]c(C)nc12)S(C)(=O)=O [I-201] ; value = 9.30 to 10.00

// field: pKd; key: COCc1ccc(Nc2cc(Nc3ccccc3S(C)(=O)=O)c3nc(C)[nH]c3n2)nn1 [I-521] ; value = > 10.00

// field: pKd; key: CC(C)c1ccc(Nc2cc(Nc3ccccc3S(C)(=O)=O)c3nc(C(F)F)[nH]c3n2)nc1C#N [I-489] ; value = 9.30 to 10.00

// field: pKd; key: C#Cc1cccc(Nc2cc(Nc3ccc(F)cc3S(C)(=O)=O)c3nc(C)[nH]c3n2)n1 [I-630] ; value = > 10.00

// field: pKd; key: Cc1nc2c(Nc3ccc([C@@H]4CCCCO4)cc3S(C)(=O)=O)cc(NC(=O)[C@H]3CC3(F)F)nc2[nH]1 [I-323] ; value = 9.30 to 10.00

###

In this section we review reported pKd values for a set of compounds.
# experimental-system: human TYK2 (JH2domain-pseudokinase) (Homo sapiens (Human), UniProt P29597)
# protocol-description: TYK2 JH2 Domain Binding Assay (KINOMEscan, DiscoveRx)
# reported-conditions: 11-point dilution, duplicate
pKd: −log10 of the molar value.

Recorded results for 10 compounds are shown here.
COc1c(Nc2cc(NC(=O)C3CC3)nc3[nH]c(C(F)F)nc23)cccc1-n1cnc(C)n1 [I-51] | < 8.00
COc1c(C#N)cccc1Nc1cc(NC(=O)C2CC2)nc2[nH]c(C(F)F)nc12 [I-29] | < 8.00
COc1cc(N2CCCC2=O)ccc1Nc1cc(NC(=O)C2CC2)nc2[nH]c(C(F)F)nc12 [I-18] | 8.00 to 9.00
Cc1csc(-c2ccc(Nc3cc(Nc4cc5n(n4)CCOC5)nc4[nH]c(C(F)F)nc34)c(S(C)(=O)=O)c2)n1 [I-476] | 9.30 to 10.00
CS(=O)(=O)c1cc([C@H]2CCCOC2)ccc1Nc1cc(NC(=O)[C@@H]2CC2(F)F)nc2[nH]c(C(F)F)nc12 [I-311] | 8.00 to 9.00
COc1cc(-c2cncn2C)ccc1Nc1cc(Nc2cccc(C#N)n2)nc2[nH]c(C(F)F)nc12 [I-143] | 8.00 to 9.00
Cc1nc2c(Nc3ccc([C@H]4CCCO4)cc3S(C)(=O)=O)cc(NC(=O)C3CC3(F)F)nc2[nH]1 (stereo partly shown) [I-340] | 9.00 to 9.30
Cc1nc2c(Nc3ccc(-c4ccn(C)n4)cc3P(C)(C)=O)cc(NC(=O)C3CC3)nc2[nH]1 [I-430] | 9.30 to 10.00
Cc1nc2c(Nc3ccc([C@H]4CCC(F)(F)CO4)cc3S(C)(=O)=O)cc(NC(=O)C3CC3)nc2[nH]1 [I-615] | 9.00 to 9.30
Cc1cc(Nc2cc(Nc3ccc(C4=NC(C)(C)CS4)cc3S(C)(=O)=O)c3nc(C(F)F)[nH]c3n2)nc(C)n1 [I-563] | 8.00 to 9.00

Log: human TYK2 (JH2domain-pseudokinase) (Homo sapiens (Human), UniProt P29597), compound Cc1nc2c(Nc3ccc([C@H]4CCCCO4)cc3S(C)(=O)=O)cc(NC(=O)[C@@H]3CC3(F)F)nc2[nH]1 [I-257] , pKd = 8.00 to 9.00

Log: human TYK2 (JH2domain-pseudokinase) (Homo sapiens (Human), UniProt P29597), compound COc1c(Nc2cc(NC(=O)[C@H]3C[C@H]3F)nc3[nH]c(C)nc23)cccc1-c1ncn(C)n1 [I-267] , pKd = 8.00 to 9.00

Log: human TYK2 (JH2domain-pseudokinase) (Homo sapiens (Human), UniProt P29597), compound Cc1cc(Nc2cc(Nc3ccc([C@@H]4CCCCO4)cc3S(C)(=O)=O)c3nc(C(F)F)[nH]c3n2)nc(C)n1 [I-505] , pKd = 9.30 to 10.00

Log: human TYK2 (JH2domain-pseudokinase) (Homo sapiens (Human), UniProt P29597), compound Cc1nc2c(Nc3ccc(-c4cncn4C)cc3N(C)S(C)(=O)=O)cc(NC(=O)C3CC3)nc2[nH]1 [I-153] , pKd = 9.30 to 10.00

Log: human TYK2 (JH2domain-pseudokinase) (Homo sapiens (Human), UniProt P29597), compound COc1c(Nc2cc(NC(=O)C3CC3)nc3[nH]c(C(F)F)nc23)cccc1-c1c(C)nnn1C [I-146] , pKd = 8.00 to 9.00

Log: human TYK2 (JH2domain-pseudokinase) (Homo sapiens (Human), UniProt P29597), compound CC1(C)CN=C(c2ccc(Nc3cc(NC(=O)C4CC4)nc4[nH]c(C(F)F)nc34)c(S(C)(=O)=O)c2)O1 [I-283] , pKd = 8.00 to 9.00
